Sourced from paper PMC7349888

Tested on: F98 rat glioma cells
Experiment: Cell viability assay (WST-8) in F98 cells
Type: cell-based
Details: WST-8 test, read-out: IC50 (cytotoxicity)
experimentalEndpoint: IC50

IC50 for N[C@@H](Cc1ccc(B(O)O)cc1)C(=O)O [BPA, boronophenylalanine, reference compound] ?
> 20 mM
